Exercise: state measured IC50 for each of the compounds provided.
Target: KRAS WT (Homo sapiens, UniProt P01116+P62937)
Sequence (P01116 1-169 isoform P01116-2 limits assumed, one chain of several): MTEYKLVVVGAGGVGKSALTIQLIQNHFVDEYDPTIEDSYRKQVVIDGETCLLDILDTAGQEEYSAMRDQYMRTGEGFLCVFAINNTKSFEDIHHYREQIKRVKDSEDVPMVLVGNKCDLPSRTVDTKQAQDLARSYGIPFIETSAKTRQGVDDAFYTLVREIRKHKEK
Assay: Disruption of BRAF RBD interaction with Ras (FRET / MOA assay, with Cyclophilin A)
Assay type: biochemical
Details: KRAS WT; read-out: KRAS WT FRET data IC50

Record excerpt, results attached:
Form field: reported IC50 of CCn1c(-c2cccnc2[C@H](C)OC)c2c3cc(ccc31)-c1csc(n1)C[C@H](NC(=O)[C@H](C(C)C)N(C)C(=O)N1CC(C(C)(C)OC)C1)C(=O)N1CCC[C@H](N1)C(=O)OCC(C)(C)C2 (atropisomer, axis not shown) [Example A614] 100 to 1000 nM

Thanks! And C=CC(=O)N1CC[C@H](C(=O)N(C)[C@H](C(=O)N[C@H]2Cc3cc(O)cc(c3)-c3ccc4c(c3)c(c(-c3ccccc3[C@@H](C)OC)n4CC)CC(C)(C)COC(=O)[C@@H]3CCCN(N3)C2=O)C(C)C)C1 [Example A029] ? 100 to 1000 nM

Thanks! And CCn1c(-c2cccnc2[C@H](C)OC)c2c3cc(ccc31)-c1csc(n1)C[C@H](NC(=O)[C@H]1CCCO1)C(=O)N1CCC[C@H](N1)C(=O)OCC(C)(C)C2 (atropisomer, axis not shown) [Example A315] ? 100 to 1000 nM

Thanks! And CCn1c(-c2cccnc2COC)c2c3cc(ccc31)-c1cc(O)cc(c1)C[C@H](NC(=O)[C@H](C(C)C)N(C)C(=O)[C@H](N)CCCNC(=N)N)C(=O)N1CCC[C@H](N1)C(=O)OCC(C)(C)C2 [Example A48] ? 100 to 1000 nM

Thanks! And C=CC(=O)N1C[C@H](C)[C@H](C(=O)N(C)[C@H](C(=O)N[C@H]2Cc3cc(O)cc(c3)-c3ccc4c(c3)c(c(-c3ccccc3CCOC)n4CC)CC(C)(C)COC(=O)[C@@H]3CCCN(N3)C2=O)C(C)C)C1 [Example A041] ? 1000 to 10000 nM

Report IC50 for every entry below.
1. C=CC(=O)N1CC[C@H](C(=O)N(C)[C@H](C(=O)N[C@H]2Cc3cc(O)cc(c3)-c3ccc4c(c3)c(c(-c3cncc(COC)c3)n4CC)CC(C)(C)COC(=O)[C@@H]3CCCN(N3)C2=O)C(C)C)C1 [Example A083]
2. CCn1c(-c2cccnc2[C@H](C)OC)c2c3cc(ccc31)-c1cc(C#N)cc(c1)C[C@H](NC(=O)[C@H](C(C)C)N(C)C(C)=O)C(=O)N1CCC[C@H](N1)C(=O)OCC(C)(C)C2 (atropisomer, axis not shown) [Example A430]
3. CCn1c(-c2cnccc2COC)c2c3cc(ccc31)-c1cc(O)cc(c1)C[C@H](NC(=O)[C@H](C(C)C)N(C)C(=O)[C@H]1CCNC1)C(=O)N1CCC[C@H](N1)C(=O)OCC(C)(C)C2 [Example A10]
4. C=CC(=O)N1CC[C@H](C(=O)N(C)[C@H](C(=O)N[C@H]2C[C@H]3CN(CCCO3)c3ccc4c(c3)c(c(-c3cccnc3[C@H](C)OC)n4CC)CC(C)(C)COC(=O)[C@@H]3CCCN(N3)C2=O)C(C)C)C1 (racemic) [Example A405]
5. C=CC(=O)N1CC[C@]2(C1)OCN(C(=O)N(C)[C@H](C(=O)N[C@H]1Cc3cccc(n3)-c3ccc4c(c3)c(c(-c3cccnc3[C@H](C)OC)n4CC)CC(C)(C)COC(=O)[C@@H]3CCCN(N3)C1=O)C(C)C)C2=O (atropisomer, axis not shown) [Example A652]
6. CCn1c(-c2cc(N3CCN(C)CC3)cnc2[C@H](C)OC)c2c3cc(ccc31)-c1cc(O)cc(c1)C[C@H](NC(=O)[C@H](C1CCCC1)N(C)C(=O)[C@H]1OCC[C@H]1c1ccccc1)C(=O)N1CCC[C@H](N1)C(=O)OCC(C)(C)C2 [Example A423]
7. C=CC(=O)N1CC[C@H](C(=O)Nc2ccccc2C(=O)N[C@H]2Cc3cc(O)cc(c3)-c3ccc4c(c3)c(c(-c3cnccc3COC)n4CC)CC(C)(C)COC(=O)[C@@H]3CCCN(N3)C2=O)C1 [Example A229]

1: 1000 to 10000 nM; 2: > 10000 nM; 3: 10 to 100 nM; 4: > 10000 nM; 5: 1000 to 10000 nM; 6: 100 to 1000 nM; 7: 100 to 1000 nM

Form field: reported IC50 of C=CS(=O)(=O)N1CC[C@H](C(=O)N(C)[C@H](C(=O)N[C@H]2Cc3cc(O)cc(c3)-c3ccc4c(c3)c(c(-c3cccnc3COC)n4CC)CC(C)(C)COC(=O)[C@@H]3CCCN(N3)C2=O)C(C)C)C1 [Example A069] 100 to 1000 nM

###

Target: NRAS Q61K (Homo sapiens, UniProt P01111+P62937, Q61K)
Sequence (P01111 whole entry Q61K): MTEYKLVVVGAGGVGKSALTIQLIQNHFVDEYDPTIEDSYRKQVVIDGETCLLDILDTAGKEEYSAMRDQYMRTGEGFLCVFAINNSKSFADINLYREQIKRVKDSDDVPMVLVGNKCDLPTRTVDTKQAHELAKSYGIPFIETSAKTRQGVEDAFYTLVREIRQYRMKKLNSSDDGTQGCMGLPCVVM
Sequence (P62937 whole entry): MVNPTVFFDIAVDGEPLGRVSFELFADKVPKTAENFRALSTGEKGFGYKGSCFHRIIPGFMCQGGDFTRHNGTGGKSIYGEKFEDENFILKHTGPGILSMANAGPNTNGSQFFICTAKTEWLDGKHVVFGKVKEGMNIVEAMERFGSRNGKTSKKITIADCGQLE
Experiment: Disruption of BRAF RBD interaction with Ras (FRET / MOA assay, with Cyclophilin A)
Format: biochemical
Details: NRAS Q61K; read-out: NRAS Q61K FRET data IC50
pIC50: −log10 of the molar value.
MEASUREMENT KIND: pIC50

Report pIC50 for every entry below.
1. CCn1c(-c2cccnc2[C@H](C)OC)c2c3cc(ccc31)-c1csc(n1)C[C@H](NC(=O)[C@H](C(C)C)N(C)C(=O)N1CC(N)(C#N)C1)C(=O)N1CCC[C@H](N1)C(=O)OCC(C)(C)C2
2. CCn1c(-c2cccnc2[C@H](C)OC)c2c3cc(ccc31)-c1csc(n1)C[C@H](NC(=O)[C@H](C(C)C)N(C)C(=O)N(C)C)C(=O)N1CCC[C@H](N1)C(=O)OCC(C)(C)C2 (racemic)
3. C=CC(=O)N1CCOC2(CCN(C(=O)N(C)[C@H](C(=O)N[C@H]3Cc4cc(CF)cc(c4)-c4ccc5c(c4)c(c(-c4cccnc4[C@H](C)OC)n5CC(F)(F)F)CC(C)(C)COC(=O)C4CCCN(N4)C3=O)C(C)C)CC2)C1 (stereo partly drawn)
4. CCn1c(-c2cccnc2[C@H](C)OC)c2c3cc(ccc31)-c1cccc(c1)C[C@H](NC(=O)[C@@H](COC1CN(C(=O)C#C[C@@H]3COCCN3C)C1)C(C)C)C(=O)N1CCC[C@H](N1)C(=O)OCC(C)(C)C2 (atropisomer, axis not shown)
5. CCn1c(-c2cccnc2[C@H](C)OC)c2c3cc(ccc31)-c1csc(n1)C[C@H](NC(=O)[C@H](C(C)C)N(C)C(=O)N1CC(n3nc(C)cc3C)C1)C(=O)N1CCC[C@H](N1)C(=O)OCC(C)(C)C2

["6.00 to 7.00", "7.00 to 8.00", "6.00 to 7.00", "< 5.00", "6.00 to 7.00"]

Form field: reported pIC50 of `C=CC(=O)N1CC[C@H](C(=O)N(C)[C@H](C(=O)N[C@H]2Cc3cc(O)cc(c3)-c3ccc4c(c3)c(c(-c3c(F)cccc3CCOC)n4CC)CC(C)(C)COC(=O)[C@@H]3CCCN(N3)C2=O)C(C)C)C1` 5.00 to 6.00

###

Target: NRAS G12C (Homo sapiens, UniProt P01111+P62937, G12C)
Sequence (P01111 whole entry G12C, one chain of several): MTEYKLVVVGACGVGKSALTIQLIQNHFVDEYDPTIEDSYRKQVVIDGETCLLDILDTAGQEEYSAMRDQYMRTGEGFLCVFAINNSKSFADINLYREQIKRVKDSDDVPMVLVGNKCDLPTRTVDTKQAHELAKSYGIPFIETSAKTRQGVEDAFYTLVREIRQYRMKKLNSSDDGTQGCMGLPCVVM
Assay: Disruption of BRAF RBD interaction with Ras (FRET / MOA assay, with Cyclophilin A)
Format: biochemical
Details: NRAS G12C; read-out: NRAS G12C FRET data IC50
pIC50: −log10 of the molar value.
Exercise: state measured pIC50 for each of the molecules provided.

Record excerpt, results attached:
Lookup: pIC50 / NRAS G12C (Homo sapiens, UniProt P01111+P62937, G12C) / `CCn1c(-c2cccnc2[C@H](C)OC)c2c3cc(ccc31)-c1csc(n1)C[C@H](NC(=O)[C@H](C(C)C)N(C)C(=O)N1CCOC[C@@H]1c1ccccc1)C(=O)N1CCC[C@H](N1)C(=O)OCC(C)(C)C2` 5.00 to 6.00

Thanks! And C=CC(=O)N1CC2(CCN2C(=O)N(C)[C@H](C(=O)N[C@H]2Cc3cccc(n3)-c3ccc4c(c3)c(c(-c3cccnc3[C@H](C)OC)n4CC)CC(C)(C)COC(=O)C3CCCN(N3)C2=O)C(C)C)C1 (some centres unmarked) ? 7.00 to 8.00

Thanks! And C=CC(=O)N1CCC2(C1)CN(C(=O)N(C)[C@H](C(=O)N[C@H]1Cc3nc(cs3)-c3ccc4c(c3)c(c(-c3cccnc3[C@H](C)OC)n4CC(F)(F)F)CC(C)(C)COC(=O)C3CCCN(N3)C1=O)C(C)C)C2 (some centres unmarked) ? 7.00 to 8.00

Thanks! And `CCn1c(-c2cccnc2COC)c2c3cc(ccc31)-c1cc(O)cc(c1)C[C@H](NC(=O)[C@H](C(C)C)N(C)C(=O)[C@H]1CCN(C(=O)/C=C\CN(C)C)C1)C(=O)N1CCC[C@H](N1)C(=O)OCC(C)(C)C2` ? 7.00 to 8.00

Thanks! And `CCn1c(-c2cnccc2COC)c2c3cc(ccc31)-c1cc(O)cc(c1)C[C@H](NC(=O)[C@H](C(C)C)N(C)C(=O)[C@@H]1CCCO1)C(=O)N1CCC[C@H](N1)C(=O)OCC(C)(C)C2` ? 6.00 to 7.00

Thanks! And `CCn1c(-c2cnccc2COC)c2c3cc(ccc31)-c1cc(O)cc(c1)C[C@H](NC(=O)[C@H](C(C)C)N(C)C(=O)[C@H]1CCN(C(=O)C(C)C)C1)C(=O)N1CCC[C@H](N1)C(=O)OCC(C)(C)C2` ? 6.00 to 7.00

Report pIC50 for every entry below.
1. CCn1c(-c2cc(C3CCN(C)CC3)cnc2[C@H](C)OC)c2c3cc(ccc31)-c1csc(n1)C[C@H](NC(=O)[C@H](C(C)C)N(C)C(=O)N1CC(C3COC3)C1)C(=O)N1CCC[C@H](N1)C(=O)OCC(C)(C)C2
2. CCn1c(-c2cccnc2[C@H](C)OC)c2c3cc(ccc31)-c1csc(n1)C[C@H](NC(=O)[C@H](C(C)C)N(C)C(=O)[C@H]1CCN(C(=O)C(C)(C)N(C)C)C1)C(=O)N1CCC[C@H](N1)C(=O)OCC(C)(C)C2

7.00 to 8.00
5.00 to 6.00
